Consider the following molecules and their measured microsomal CLint readings.
Assay: Human Liver Microsomal Stability (Test C)
Assay type: in vitro ADME
Conditions: human, liver microsomes
Measured Metric: microsomal CLint (µL/min/mg)

- COc1cc(F)c(O[C@H]2CC[C@@](C)(C(=O)O)CC2)cc1C(=O)N[C@@H]1[C@H]2CC[C@H](C2)[C@@H]1C(=O)N[C@@H]1CCCN(S(=O)(=O)C(F)(F)F)C1 [Example 604]: 110
- COc1cc(C#N)c(O[C@H]2C[C@@](C)(C(=O)O)C2)cc1C(=O)N[C@@H]1[C@H]2CC[C@H](C2)[C@@H]1C(=O)NCC1(C)CCC1 [Example 148]: 7.4

* * *

Assay: Human Liver Microsomal Stability (Test C)
Type: in vitro ADME
Conditions: human, liver microsomes
Consider the following molecules and their measured log10 microsomal CLint readings.
Measured Metric: log10 microsomal CLint (log10 of the value in µL/min/mg)

* COc1cc(F)c(-c2cccc(CCC(=O)O)c2)cc1C(=O)N[C@H]1[C@@H](C(=O)Nc2cccc(S(=O)(=O)C(F)(F)F)c2)[C@@H]2C=C[C@H]1C2 (racemic) | 0.79
* COc1cc(F)c(O[C@H]2CC[C@@](C)(C(=O)O)CC2)cc1C(=O)N[C@@H]1CC[C@@H]1C(=O)Nc1ccc(F)c(C(F)(F)F)c1 | 0.93
* CC1(CNC(=O)[C@H]2[C@@H]3CC[C@@H](C3)[C@H]2NC(=O)c2cc(O[C@H]3CC[C@@](C)(C(=O)O)CC3)c(Cl)cc2F)CCC1 | 1.51
* CC1(CNC(=O)[C@H]2[C@@H]3CC[C@@H](C3)[C@H]2NC(=O)c2cc(O[C@H]3CC[C@@](C)(C(=O)O)CC3)c(F)cc2F)CCC1 | 1.57
* COc1cc(C#N)c(O[C@H]2CC[C@@](C)(C(=O)O)CC2)cc1C(=O)N[C@@H]1[C@@H]2CC[C@@H](C2)[C@@H]1C(=O)NCC(C)(C)C | 0.76
* COc1cc(F)c(O[C@H]2CC[C@@H](C(=O)O)CC2)cc1C(=O)N[C@@H]1[C@H]2CC[C@H](C2)[C@@H]1C(=O)Nc1ccc(Br)c(C(F)(F)F)c1 | 1.41
* COc1cc(F)c(O[C@H]2CC[C@@H](C(=O)O)CC2)cc1C(=O)N[C@@H]1[C@H]2CC[C@H](C2)[C@@H]1C(=O)Nc1ccc(S(F)(F)(F)(F)F)cc1 | 1.36
* COc1cc(F)c(-c2ccc(OCC(=O)O)cc2)cc1C(=O)N[C@@H]1[C@H]2CC[C@H](C2)[C@@H]1C(=O)Nc1cccc(S(=O)(=O)C(F)(F)F)c1 | 1.20
* COc1cc(F)c(O[C@H]2CC[C@@H](C(=O)O)CC2)cc1C(=O)N[C@@H]1[C@H]2CC[C@H](C2)[C@@H]1C(=O)Nc1cccc(OC(F)F)c1 | 1.45
* COc1cc(F)c(OCCCCC(=O)O)cc1C(=O)N[C@H]1[C@@H](C(=O)Nc2cccc(S(=O)(=O)C(F)(F)F)c2)[C@@H]2C=C[C@H]1C2 (racemic) | 1.18
* COc1cc(F)c(O[C@H]2CC[C@@H](C(=O)O)CC2)cc1C(=O)N[C@@H]1[C@H]2CC[C@H](C2)[C@@H]1C(=O)Nc1ccc(C(F)(F)F)cn1 | 1.38
* COc1cc(F)c(O[C@H]2CC[C@@](C)(C(=O)O)CC2)cc1C(=O)N[C@H]1[C@@H]2CC[C@@H](C2)[C@H]1C(=O)Nc1ccc(F)c(S(F)(F)(F)(F)F)c1 | 1.62
* COc1cc(F)c(-c2ccc(C(=O)O)cc2)cc1C(=O)N[C@H]1[C@@H](C(=O)Nc2cccc(S(=O)(=O)C(F)(F)F)c2)[C@@H]2C=C[C@H]1C2 (single isomer, unassigned) [Example 552] | 0.86
* COc1cc(F)c(O[C@H]2C[C@@](C)(C(=O)O)C2)cc1C(=O)N[C@@H]1[C@H]2CC[C@H](C2)[C@@H]1C(=O)NCC1(C)CCC1 | 0.88
* COc1cc(C#N)c(O[C@H]2CC[C@@](C)(C(=O)O)CC2)cc1C(=O)N[C@@H]1[C@H]2CC[C@H](C2)[C@@H]1C(=O)NC(C)(C)CF | 0.60
* COc1cc(F)c(O[C@H]2CC[C@@](C)(C(=O)O)CC2)cc1C(=O)N[C@@H]1[C@H]2CC[C@H](C2)[C@@H]1C(=O)N[C@@H](C)C(C)(C)C | 1.18
* COc1cc(F)c(O[C@H]2CC[C@@](C)(C(=O)O)CC2)cc1C(=O)N[C@@H]1[C@H]2CC[C@H](C2)[C@@H]1C(=O)NCC(C)C | 0.76
* CC1(CNC(=O)[C@H]2[C@H]3CC[C@H](C3)[C@H]2NC(=O)c2cc(O[C@H]3CC[C@@](C)(C(=O)O)CC3)c(C#N)cc2F)CCC1 | 0.97
* COc1cc(F)c(O[C@H]2CC[C@@](C)(C(=O)O)CC2)cc1C(=O)Nc1nn2cccnc2c1C(=O)NCC1(C)CCC1 | 1.63
* COc1cc(F)c(O[C@H]2CC[C@@](C)(C(=O)O)CC2)cc1C(=O)N[C@@H]1CCC[C@@H]1C(=O)N[C@H](C)C(C)C | 0.85
* COc1cc(C#N)c(O[C@H]2CC[C@@](C)(C(=O)O)CC2)cc1C(=O)N[C@@H]1[C@H]2CC[C@H](C2)[C@@H]1C(=O)NCC1(CF)CC1 | 0.64
